Reported % inhibition values are given for each entry in this list.
- Tgt: AKR1C1 (Homo sapiens)
- Sequence (Q04828 1-323): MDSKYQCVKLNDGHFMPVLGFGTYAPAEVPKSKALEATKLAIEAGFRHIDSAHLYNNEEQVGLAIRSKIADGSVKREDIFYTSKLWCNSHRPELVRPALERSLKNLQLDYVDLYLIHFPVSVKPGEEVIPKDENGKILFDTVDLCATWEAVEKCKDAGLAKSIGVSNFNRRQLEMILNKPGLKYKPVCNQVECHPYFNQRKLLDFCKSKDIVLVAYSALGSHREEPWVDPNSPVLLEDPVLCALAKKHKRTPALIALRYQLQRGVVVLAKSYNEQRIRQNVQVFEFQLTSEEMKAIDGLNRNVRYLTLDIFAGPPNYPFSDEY
- Experiment summary: Enzyme activity (NADPH) assay with s-tetralol, recombinant GST-AKR1C1
- Format: biochemical
- Parameters: made in house; host or cells: Escherichia coli JM109
- Condition info: 2 μM compound; Supplementary Table 1
Give your result in % as a bare value.

Examples from the recorded data:
COc1c(O[C@@H]2O[C@H](C(=O)O)[C@@H](O)[C@H](O)[C@H]2O)cc(O)c2c(=O)cc(-c3ccccc3)oc12 [Wogonoside] ... -8.88
COc1cc(O)c2c(c1)C(=O)c1cc(C)cc(O)c1C2=O ... -4.57
COc1cc2c(cc1O)CC[n+]1cc3c(OC)c(OC)ccc3cc1-2.[Cl-] [Jatrorrhizine Hydrochloride] ... -4.38

## Input Please give the documented % inhibition of O=C([O-])C(O)Cc1ccc(O)c(O)c1.[Na+] (centres unmarked) [Sodium Danshensu]
## Output 14

## Input Please give the documented % inhibition of COc1cc2c(=O)c(-c3ccc(O)cc3)coc2cc1O[C@@H]1O[C@H](CO)[C@@H](O)[C@H](O)[C@H]1O
## Output 64.26

* * *

- Tgt: AKR1C1 (Homo sapiens)
- Experiment summary: Enzyme activity (NADPH) assay with s-tetralol, recombinant GST-AKR1C1;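 further: GST-fused AKR1C1 expressed in E. coli and purified by glutathione affinity, control wells received DMSO instead of compound, duplicate samples from a single experiment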
- Type: biochemical
- Parameters: made in house; host or cells: Escherichia coli JM109
- Condition info: 2 μM compound; Supplementary Table 1; CON = 1; read-out: ratio (activity relative to CON)
Metric: remaining activity at 2 µM (%)
Give your result in % as a bare value.

Examples from the recorded data:
O=C1C[C@@H](c2ccc(O[C@@H]3O[C@H](CO)[C@@H](O)[C@H](O)[C@H]3O)cc2)Oc2cc(O)ccc21 [Liquiritin] ... 31
COc1ccc(-c2cc(=O)c3c(OC)c(OC)c(OC)c(OC)c3o2)cc1 [Tangeretin] ... 109
C[C@@H]1O[C@@H](O[C@@H]2[C@@H](O)[C@H](OCCc3ccc(O)c(O)c3)O[C@H](CO)[C@H]2OC(=O)/C=C/c2ccc(O)c(O)c2)[C@H](O)[C@H](O)[C@H]1O [Acteoside] ... 101

## Input Please give the documented remaining activity at 2 µM of O=c1c(-c2ccc(O)cc2)coc2cc(O[C@@H]3O[C@H](CO)[C@@H](O)[C@H](O)[C@H]3O)ccc12 [Daidzin]
## Output 107

## Input Please give the documented remaining activity at 2 µM of COc1cc(/C=C/C(=O)CC(=O)/C=C/c2ccc(O)c(OC)c2)ccc1O [Curcumin]
## Output 51.5

## Input Please give the documented remaining activity at 2 µM of COc1ccc2cc1Oc1ccc(cc1)C[C@H]1c3cc(c(OC)cc3CCN1C)Oc1c(O)c(OC)cc3c1[C@H](C2)N(C)CC3 [Fangchinoline]
## Output 114
